Values from the supplement of paper PMC10567573

Quick reference for protein stability index among some variants
B1: KRT13 (parent)
chain: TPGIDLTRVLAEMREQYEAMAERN

Variants of: B1
Assay: protein stability index of a GFP-peptide fusion (GPS, HEK-293T) (PSI 1-6); higher = more stable;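 further: lentivirally expressed fusions sorted by FACS into six bins by GFP to DsRed ratio, PSI derived from sequencing read proportions per bin multiplied by bin number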
Details: c terminus: a fixed tail appended
Respond numerically, and do not add a unit to the figure.

// worked examples, protein stability index included
{"columns": ["Seq Text", "protein stability index"],
 "data": [
  ["TPGIDLTRVLAEMWEQYEAMAERN", 4.01],
  ["TPGIDLTRVLAEMREQYEAMMERN", 4.09],
  ["TPGIDLTRVLAEYREQYEAMAERN", 4.11],
  ["TPGIDLTRVLAEMREQYEDMAERN", 4.08],
  ["TPGIDLTRVLAEQREQYEAMAERN", 4.1]
]}

State, in one line, measured protein stability index of TPGIDLTRVLAEMREQYECMAERN
3.99
